Substrate: OC[C@@H](O)[C@H](O)[C@@H](O)CO
assay explanation: purified protein
experimental context: 1-10 mM xylitol, 1.5 mM NAD+, 50 mM Tris-HCl pH 8.0, 30 °C

[
  {
    "protein": "SpXDH C97D mutant (enzyme, Schizosaccharomyces pombe, UniProt P36624 1-360, looked up, SPBC1773.05c protein of S. pombe (SpXDH), cloned into pQE-81L; source: E. coli DH5α, purified (Ni-NTA)) MAPAEKAFVLRKKMDTAIEDRPGQTLTDDHQVKVAIKATGICGSDVHYWKEGGIGDFILKKPMILGHESAGVVVEVGKGVSSLKPGDPVAVEPGCVDRLCDYCRSGRYNLCPHMEFAATPPYDGTLRTYYITTEDFCTKLPKQISVEEGALFEPMSVAVHAMTRGNLKCGSRVLVMGCGTVGLLMMAVAKAYGAIDIVAVDASPSRVEFAQKYVGAKPFTPIAAKENESLPDYAQRYKQAIIEKYGEFDFAVDATGVGICIHTAVLALKRGGTFVQAGNGKPVIDFPINHIINYEINVLGSFRYAHGCYKQSLFLVSNGLVDVKPLITHRFAFKDALKAYETVASGEEGVLKVIIGGPDA",
    "unit abbreviation": "s⁻¹",
    "kcat": 6.78
  },
  {
    "protein": "SpXDH wild type (xylitol dehydrogenase, SPBC1773.05c protein from Schizosaccharomyces pombe) (enzyme, UniProt P36624 1-360, looked up, cloned into pQE-81L; also called SpXDHWT; WT; source: E. coli DH5α, purified (Ni-NTA)) MAPAEKAFVLRKKMDTAIEDRPGQTLTDDHQVKVAIKATGICGSDVHYWKEGGIGDFILKKPMILGHESAGVVVEVGKGVSSLKPGDPVAVEPGCVCRLCDYCRSGRYNLCPHMEFAATPPYDGTLRTYYITTEDFCTKLPKQISVEEGALFEPMSVAVHAMTRGNLKCGSRVLVMGCGTVGLLMMAVAKAYGAIDIVAVDASPSRVEFAQKYVGAKPFTPIAAKENESLPDYAQRYKQAIIEKYGEFDFAVDATGVGICIHTAVLALKRGGTFVQAGNGKPVIDFPINHIINYEINVLGSFRYAHGCYKQSLFLVSNGLVDVKPLITHRFAFKDALKAYETVASGEEGVLKVIIGGPDA",
    "unit abbreviation": "s⁻¹",
    "kcat": 6.95
  },
  {
    "protein": "SpXDH (Schizosaccharomyces pombe 972h-; C111D) (protein) MAPAEKAFVLRKKMDTAIEDRPGQTLTDDHQVKVAIKATGICGSDVHYWKEGGIGDFILKKPMILGHESAGVVVEVGKGVSSLKPGDPVAVEPGCVCRLCDYCRSGRYNLDPHMEFAATPPYDGTLRTYYITTEDFCTKLPKQISVEEGALFEPMSVAVHAMTRGNLKCGSRVLVMGCGTVGLLMMAVAKAYGAIDIVAVDASPSRVEFAQKYVGAKPFTPIAAKENESLPDYAQRYKQAIIEKYGEFDFAVDATGVGICIHTAVLALKRGGTFVQAGNGKPVIDFPINHIINYEINVLGSFRYAHGCYKQSLFLVSNGLVDVKPLITHRFAFKDALKAYETVASGEEGVLKVIIGGPDA",
    "unit abbreviation": "s⁻¹",
    "kcat": 3.6
  }
]
